Origin of the recorded values: patent US7163946B2

# Tested on: hPR (Homo sapiens, UniProt P06401)
# Sequence (P06401 1-933): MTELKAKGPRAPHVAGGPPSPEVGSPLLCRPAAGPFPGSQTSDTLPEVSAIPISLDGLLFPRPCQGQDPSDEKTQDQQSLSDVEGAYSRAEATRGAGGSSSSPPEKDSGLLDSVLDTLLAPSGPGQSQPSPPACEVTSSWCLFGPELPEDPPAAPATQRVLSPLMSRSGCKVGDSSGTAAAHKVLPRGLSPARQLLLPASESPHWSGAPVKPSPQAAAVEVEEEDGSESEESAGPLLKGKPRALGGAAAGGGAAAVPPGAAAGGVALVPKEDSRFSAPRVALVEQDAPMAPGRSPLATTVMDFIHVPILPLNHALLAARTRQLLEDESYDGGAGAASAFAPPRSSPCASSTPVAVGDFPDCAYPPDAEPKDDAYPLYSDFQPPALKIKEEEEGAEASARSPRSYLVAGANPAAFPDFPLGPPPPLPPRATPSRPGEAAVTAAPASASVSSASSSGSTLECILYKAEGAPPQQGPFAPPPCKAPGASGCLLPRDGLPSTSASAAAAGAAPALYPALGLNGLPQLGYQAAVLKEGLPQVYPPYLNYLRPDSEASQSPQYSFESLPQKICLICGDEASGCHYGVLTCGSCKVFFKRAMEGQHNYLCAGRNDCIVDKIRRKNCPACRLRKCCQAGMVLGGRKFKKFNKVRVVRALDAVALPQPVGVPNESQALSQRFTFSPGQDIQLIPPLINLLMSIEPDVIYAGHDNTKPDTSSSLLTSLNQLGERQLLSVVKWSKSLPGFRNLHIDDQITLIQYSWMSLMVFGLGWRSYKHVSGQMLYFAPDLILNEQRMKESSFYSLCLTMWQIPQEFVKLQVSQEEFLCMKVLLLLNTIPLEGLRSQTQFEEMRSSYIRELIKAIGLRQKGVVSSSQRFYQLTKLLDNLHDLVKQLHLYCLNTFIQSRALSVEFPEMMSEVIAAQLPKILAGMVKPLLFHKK
# Protocol: hPR cotransfection assay in CV-1 cells, agonist mode
# Assay type: cell-based
# Condition parameters: hPR agonist potencies (EC50 in nM) in the cotransfection assay, Tables 3 and 4, values without footnote

| Compound | Tested on | EC50 / nM |
| --- | --- | --- |
| CC1=CC(C)(C)Nc2ccc3c(c21)C(C)Oc1c(F)cc(F)cc1-3 (racemic) | hPR (Homo sapiens, UniProt P06401) | 1.4 |
| CC1=CC(C)(C)Nc2ccc3c(c21)C(c1ccc(Cl)c(C)c1)Oc1ccc(C)cc1-3 (centres unmarked) [Formula I X=9-Me 4-Cl-3-Me-Ph, reference compound] | hPR (Homo sapiens, UniProt P06401) | 7.45 |

====

# Tested on: hPR (Homo sapiens)
# Sequence (P06401 679-933 limits assumed): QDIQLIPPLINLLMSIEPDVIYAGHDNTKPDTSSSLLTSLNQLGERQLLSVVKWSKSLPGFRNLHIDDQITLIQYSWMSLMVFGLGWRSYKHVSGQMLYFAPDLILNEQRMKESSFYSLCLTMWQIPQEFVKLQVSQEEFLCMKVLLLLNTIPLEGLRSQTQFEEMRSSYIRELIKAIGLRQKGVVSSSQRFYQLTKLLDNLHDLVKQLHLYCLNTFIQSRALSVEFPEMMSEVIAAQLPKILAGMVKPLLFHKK
# Protocol: T47D alkaline phosphatase assay, agonist mode
# Type: cell-based
# Condition parameters: T47D, T47D human breast cancer cells; read-out: hPR Agonist T47D cells Eff. (%)

| Compound | Tested on | Output unit | Emax |
| --- | --- | --- | --- |
| COC1Oc2c(F)cc(F)cc2-c2ccc3c(c21)C(C)=CC(C)(C)N3 (racemic) [Compound 32] | hPR (Homo sapiens) | % | 36 |
| CC1=CC(C)(C)Nc2ccc3c(c21)/C(=C/Br)Oc1c(F)cc(F)cc1-3 [Compound 29] | hPR (Homo sapiens) | % | 62 |
| CC1=CC(C)(C)Nc2ccc3c(c21)/C(=C/c1cc(F)ccc1F)Oc1c(F)cc(F)cc1-3 [Compound 17] | hPR (Homo sapiens) | % | 62 |
| C#C[C@]1(O)CC[C@H]2[C@@H]3CCC4=CC(=O)CC[C@@H]4[C@H]3CC[C@@]21CC [Levonorgestrel, reference compound] | hPR (Homo sapiens) | % | 96 |
| C[C@]12CCC(=O)C=C1[C@@H]1C[C@@H]1[C@H]1[C@@H]3[C@@H]4C[C@@H]4[C@@]4(CCC(=O)O4)[C@@]3(C)CC[C@@H]12 [Drospirenone, reference compound] | hPR (Homo sapiens) | % | 117 |
| CC1=CC(C)(C)Nc2ccc3c(c21)C(c1cccc(Cl)c1)Oc1c(F)cc(F)cc1-3 (racemic) [Compound 41] | hPR (Homo sapiens) | % | 54 |
| COc1ccccc1/C=C1\Oc2c(F)cc(F)cc2-c2ccc3c(c21)C(C)=CC(C)(C)N3 [Compound 18] | hPR (Homo sapiens) | % | 57 |
